Catalogue of binders with associated pEC50 hGLPR1
target: human GLP-1 receptor (hGLP1R) (human, UniProt P43220 24-463); test: cell-based or functional assay
Numbered stars: 1 amine (or outer) side, 2 acyl side, 3 side chain; on linkers, the order of the positions; unused ones are H or OH. Square brackets hold non-standard residues; d marks the D form. Side chains are listed from the residue outwards. Ends that are not written are not given here. * marks the point of attachment. C20 diacid = O=C(O)CCCCCCCCCCCCCCCCCCC(=O)*; γGlu = O=C(O)[C@H](CCC(=O)[*:2])N[*:1]; AEEA = NCCOCCOCC(=O)O; Aib = CC(C)(N)C(=O)O
Readout: pEC50 hGLPR1

Binder | Readout | Val
H[Aib]EGTFTSDVSTLK([AEEA-AEEA-γGlu-C20 diacid])EEAATQRFLEHLV-NH2 (also: K14 lipid also given as C18DA[γE][OEG][OEG]-) [SEQ ID NO: 102] | pEC50 hGLPR1 | 11 -log M
H[Aib]EGTFTSDVSFLK([AEEA-AEEA-γGlu-C20 diacid])EEA[Aib]LQRFLEHLV-NH2 [SEQ ID NO: 173] | pEC50 hGLPR1 | 10.9 -log M
H[Aib]EGTFTSDVSTLK([AEEA-AEEA-γGlu-C20 diacid])ELAATQRFLEHLV-NH2 [SEQ ID NO: 67] | pEC50 hGLPR1 | 10.3 -log M
